Target or test system: UniProt:Q8IUQ4
Assay summary: blockers of Siah-1 interaction with plectin peptide – biochemical, fluorescence polarization, rhodamine-plectin, uHTS, primary screen (AID 1817)
Protocol conditions: Siah-1 / rhodamine-plectin peptide fluorescence polarization
Calls of active or inactive are those of the source.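 Rule for the calls: active = displacement of at least 50% at 20 µM, with a fluorescence ratio check between 0.3 and a set limit; inactive = the rest.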
Reply using exactly one outcome from active, inactive

Take a look at these entries with their results.
{"columns": ["Structure smiles", "Target or test system", "Label value"],
 "data": [
  ["Nc1ccc(S(=O)(=O)Nc2ccc(S(N)(=O)=O)cc2)cc1", "UniProt:Q8IUQ4", "inactive"],
  ["CCCCn1c(NC(=O)c2ccc(Br)o2)c(C(=O)OCC)c2nc3ccccc3nc21", "UniProt:Q8IUQ4", "inactive"]
]}

Recorded test call requested for `CCN(CC)CCOC(=O)c1ccc(N/C=C(/C#N)c2nc(-c3ccc(OC)c(OC)c3)cs2)cc1` active

====

Target or test system: E3 ubiquitin-protein ligase SIAH1 (Homo sapiens) (UniProt Q8IUQ4)
Sequence (Q8IUQ4 whole entry, looked up): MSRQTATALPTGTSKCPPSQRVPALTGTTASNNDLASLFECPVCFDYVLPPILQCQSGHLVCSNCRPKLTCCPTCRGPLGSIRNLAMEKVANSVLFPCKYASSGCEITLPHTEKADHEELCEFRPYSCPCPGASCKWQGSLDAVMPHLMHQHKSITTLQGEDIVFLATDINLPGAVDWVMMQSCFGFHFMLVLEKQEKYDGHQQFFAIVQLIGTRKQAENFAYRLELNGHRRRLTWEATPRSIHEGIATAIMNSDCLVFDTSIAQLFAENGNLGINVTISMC
Assay summary: blockers of Siah-1 interaction with plectin peptide – biochemical, fluorescence polarization, rhodamine-plectin, uHTS, primary screen (AID 1817)
Protocol conditions: Siah-1 / rhodamine-plectin peptide fluorescence polarization
Calls of active or inactive are those of the source.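 Rule for the calls: active = displacement of at least 50% at 20 µM, with a fluorescence ratio check between 0.3 and a set limit; inactive = the rest.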
Recorded metric: IC50

{"columns": ["Molecule", "Target or test system", "Endpoint result"],
 "data": [
  ["CCOC(=O)C1(C)C=C(Nc2ccc(O)cc2)C(=O)N1c1ccc(O)cc1 (configuration not stated)", "E3 ubiquitin-protein ligase SIAH1 (Homo sapiens) (UniProt Q8IUQ4)", "> 200 µM (inactive)"],
  ["O=C(NCc1ccc(Cl)cc1)c1cc(-c2cccs2)on1", "E3 ubiquitin-protein ligase SIAH1 (Homo sapiens) (UniProt Q8IUQ4)", "8.13 µM"],
  ["O=C(NCc1c(F)cccc1F)c1cc(COc2c(F)cccc2F)on1", "E3 ubiquitin-protein ligase SIAH1 (Homo sapiens) (UniProt Q8IUQ4)", "> 200 µM (inactive)"],
  ["CC1=CC(C)(C)N2C(=O)C(=Nc3ccc(O)cc3)c3cccc1c32", "E3 ubiquitin-protein ligase SIAH1 (Homo sapiens) (UniProt Q8IUQ4)", "inactive"]
]}

E3 ubiquitin-protein ligase SIAH1 (Homo sapiens) (UniProt Q8IUQ4) / IC50 / Cc1ccc(C(=O)NC2CC3CCCC(C2)N3C(=O)NC2CCCCC2)cc1 (configuration not stated) : value? > 200 µM (inactive)

Further, for `CC(NC(=O)Nc1ccc(O)cc1)(C(F)(F)F)C(F)(F)F` ? > 200 µM (inactive)

Further, for `Oc1ccc(N=Cc2sc3ccccc3c2Cl)cc1` ? inactive

Further, for `O=c1ccc2c(-c3ccccc3)c3ccc(O)cc3oc-2c1` ? 11.1 µM

Further, for CCC(C)N1C(=O)/C(=C/c2c(NCCCOC(C)C)nc3c(C)cccn3c2=O)SC1=S (configuration not stated) ? > 200 µM (inactive)

Further, for `COCCCNc1c2c3c(cccc3[nH]c1=O)C(=O)c1ccccc1-2` ? > 200 µM (inactive)

====

Target or test system: E3 ubiquitin-protein ligase SIAH1 (Homo sapiens) (UniProt Q8IUQ4)
Assay summary: blockers of Siah-1 interaction with plectin peptide – biochemical, fluorescence polarization, rhodamine-plectin, uHTS, primary screen (AID 1817)
Protocol conditions: Siah-1 / rhodamine-plectin peptide fluorescence polarization
Calls of active or inactive are those of the source.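 How the source made its calls: active means displacement of at least 50% at 20 µM, with a fluorescence ratio check between 0.3 and a set limit; inactive means the rest.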
Reply using exactly one outcome from active, inactive

Take a look at these entries with their results.
{"columns": ["Molecule", "Label value"],
 "data": [
  ["CC1CCCCC1NC(=O)CCS(=O)(=O)c1ccc2c(c1)NC(=O)CO2 (configuration not stated)", "inactive"],
  ["O=C(O)c1cc(O)c2c(c1)C(=O)c1cccc(O)c1C2=O", "inactive"],
  ["N#Cc1c(NC(=O)c2ccc(Br)o2)n(-c2ccccc2)c2nc3ccccc3nc12", "inactive"],
  ["Nc1ccc(O)c2c1C(=O)c1ccccc1C2=O", "active"],
  ["O=C1C=C(NCc2ccccc2)c2ccccc2C1=O", "inactive"],
  ["O=c1[nH]c(-c2ccc(F)cc2)nc2c1sc(=S)n2-c1ccccc1", "active"]
]}

Recorded test call requested for CSc1ccccc1C(=O)NC(C)c1ccc(-n2ccnc2)cc1 (configuration not stated) inactive

Further, for CC12CCC(C(=O)NCc3ccc(Cl)cc3)(OC1=O)C2(C)C (configuration not stated) ? inactive

Further, for `Cc1ccc(CNc2ccc(O)cc2)cc1` ? inactive

Further, for `CSc1n[nH]c(NCc2ccc(Cl)cc2)n1` ? inactive

Further, for `COCCOC(=O)c1sc(=S)n(CCOC)c1N` ? active

====

Target or test system: E3 ubiquitin-protein ligase SIAH1 (Homo sapiens) (UniProt Q8IUQ4)
Assay summary: blockers of Siah-1 interaction with plectin peptide – biochemical, fluorescence polarization, rhodamine-plectin, uHTS, primary screen (AID 1817)
Protocol conditions: Siah-1 / rhodamine-plectin peptide fluorescence polarization
The source made the active and inactive calls.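 Rule for the calls: active = displacement of at least 50% at 20 µM, with a fluorescence ratio check between 0.3 and a set limit; inactive = the rest.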
Reply using exactly one outcome from active, inactive

{"columns": ["Compound", "Label value"],
 "data": [
  ["CC(=O)c1ccc(NC(=O)CC2Nc3cccc4cccc(c34)NC2=O)cc1 (stereo unspecified)", "inactive"],
  ["CC(C)COc1ccc(-c2nn(-c3ccccc3)cc2/C=C2/SC(=S)N(CC(=O)O)C2=O)cc1", "inactive"],
  ["COc1cccc2cc(C(=O)N3CCc4ccccc43)c(=O)oc12", "inactive"]
]}

Recorded test call requested for `Cc1cc(C)n2ncc(C(=O)Nc3ccc4c(c3)OCO4)c2n1` inactive

Further, for `O=S(=O)(Nc1cc2nc3ccccc3nc2n1Cc1ccccc1)c1ccc(Cl)cc1` ? inactive

Further, for `CCOc1cc(/C=C(\C#N)C(=O)Nc2ccccc2C(=O)O)ccc1OC(=O)c1ccc(C)cc1` ? inactive

Further, for CN1C(=O)NC(c2ccccc2[N+](=O)[O-])C2=C1CCCC2=O (stereo unspecified) ? active

Further, for `CCOc1ccccc1CNc1ccc(O)cc1` ? inactive

Further, for `Cc1c(Cc2ccccc2)c(=O)oc2c(C)c(OCC(=O)N[C@@H](Cc3ccccc3)C(=O)O)ccc12` ? inactive

Further, for `NS(=O)(=O)c1ccc(NC(=O)c2cccc(N3C(=O)c4ccccc4C3=O)c2)cc1` ? inactive

Further, for `NS(=O)(=O)c1ccc(NS(=O)(=O)c2ccc(NC(=O)c3ccc(-c4ccccc4)cc3)cc2)cc1` ? active

The measurements presented in this section are drawn from PubChem BioAssay AID1817.
